Tested on: PC49
Experiment: qHTS profiling for inhibitors of Plasmodium falciparum proliferation (AID 504749); note: nearly all actives have a fitted effect of over 60% in size
Details: P. falciparum in erythrocytes, SYBR Green DNA, 72 h; series mostly up to 28.7 µM
Records with an inconclusive call do not appear. Calls of active or inactive are those of the source. Calls come from the whole dose curve; as a rule, active = well fitted inhibition curve with a large enough effect; inconclusive = small, poorly fitted or top-dose-only effect; inactive = flat fitted curve, though single readings scatter. Where a SMILES comes first, the peptide text is derived from it. Bridges are numbered along the chain shown (N, C = ends). [ ]: non-standard residue; d: D form. hArg = N=C(N)NCCCC[C@H](N)C(=O)O; Mpa = O=C(O)CCS
Classes used: active, inactive

INSERT INTO assay_data (compound, system_name, assigned_category) VALUES
  ('NS(=O)(=O)c1ccc(C(=O)O)cc1', 'PC49', 'inactive'),
  ('CC1CCN(CCCC(=O)c2ccc(F)cc2)CC1', 'PC49', 'inactive'),
  ('NCC1CCC(C(=O)Oc2ccc(CCC(=O)O)cc2)CC1 (configuration not stated)', 'PC49', 'inactive'),
  ('CCN(CC)S(=O)(=O)c1ccc(C(=O)O)cc1', 'PC49', 'inactive'),
  ('CC(N)CCCC(C)(C)O (configuration not stated)', 'PC49', 'inactive'),
  ('O=C(O)c1cc(=O)c2ccccc2o1', 'PC49', 'inactive'),
  ('Cc1ccc(S(=O)(=O)NC(=O)NC2CCCCC2)cc1', 'PC49', 'inactive'),
  ('CN1C[C@@H]2C[C@H]1CN2c1cc2c(cc1F)c(=O)c(C(=O)O)cn2C1CC1', 'PC49', 'inactive'),
  ('COc1nccnc1NS(=O)(=O)c1ccc(N)cc1', 'PC49', 'inactive'),
  ('CN1CCN(C(=O)C2CCCCC2)CC1', 'PC49', 'inactive'),
  ('CC(C)CCOC(=O)c1ccc(N(C)C)cc1', 'PC49', 'inactive'),
  ('CCCCCCCCCCOc1cc2c(=O)c(C(=O)OCC)c[nH]c2cc1OCC', 'PC49', 'active'),
  ('Cc1[nH]c(C)c(Cl)c(=O)c1Cl', 'PC49', 'inactive'),
  ('Cc1c(NC(=O)c2cccnc2)c(=O)n(-c2ccccc2)n1C', 'PC49', 'inactive'),
  ('O=C(Cn1ccnc1[N+](=O)[O-])NCCO', 'PC49', 'inactive'),
  ('O=C1c2cccc(O)c2C(=O)c2c(O)cccc21', 'PC49', 'inactive'),
  ('Cc1cc(=O)[nH]c(=S)[nH]1', 'PC49', 'inactive'),
  ('O=C(O)Cc1cn(-c2ccccc2)nc1-c1ccc(Cl)cc1', 'PC49', 'inactive'),
  ('Cc1cc(-n2nc3ccc(Cl)cc3n2)c(O)c(C(C)(C)C)c1', 'PC49', 'inactive'),
  ('NS(=O)(=O)c1ccc(NC(=O)CCC(=O)O)cc1', 'PC49', 'inactive'),
  ('CC(C)C[C@@H](N)C(=O)O', 'PC49', 'inactive'),
  ('C[N+](C)(C)CC[N+]1(C)Cc2c(Cl)c(Cl)c(Cl)c(Cl)c2C1', 'PC49', 'inactive'),
  ('CC(=O)SC[C@@H](Cc1ccccc1)C(=O)NCC(=O)OCc1ccccc1', 'PC49', 'inactive'),
  ('O=C(CCBr)N1CCN(C(=O)CCBr)CC1', 'PC49', 'inactive'),
  ('CCCCCC(N)=O', 'PC49', 'inactive'),
  ('Cc1ccsc1C(=CCCN1CCC[C@@H](C(=O)O)C1)c1sccc1C', 'PC49', 'inactive'),
  ('Cc1ccc(C(C)C)c(O)c1', 'PC49', 'inactive'),
  ('CN1CCCN=C1COC(=O)C(O)(c1ccccc1)C1CCCCC1 (configuration not stated)', 'PC49', 'inactive'),
  ('C=CCSCC1Nc2cc(Cl)c(S(N)(=O)=O)cc2S(=O)(=O)N1 (configuration not stated)', 'PC49', 'inactive'),
  ('O[C@@H]1CO[C@H]2[C@@H]1OC[C@@H]2O', 'PC49', 'inactive'),
  ('O=c1[nH]cnc2nc[nH]c12', 'PC49', 'inactive'),
  ('CCCCCCCC(=O)OCC(COC(=O)CCCCCCC)OC(=O)CCCCCCC', 'PC49', 'inactive'),
  ('Cc1c(Cn2ccnc2)c2ccccc2n1CCC(=O)O', 'PC49', 'inactive'),
  ('COc1cc(C(=O)NCCCCCC(=O)O)cc(OC)c1OC', 'PC49', 'inactive'),
  ('O=C(NCCCN1CCOCC1)c1ccc(Cl)cc1', 'PC49', 'inactive'),
  ('Cc1c(C)c2c(c(C)c1OC(=O)c1cccnc1)CC[C@@](C)(CCC[C@H](C)CCC[C@H](C)CCCC(C)C)O2', 'PC49', 'inactive'),
  ('O=C(O)c1ccccc1C(=O)Nc1ccc(S(=O)(=O)Nc2nccs2)cc1', 'PC49', 'inactive'),
  ('N[C@@H](Cc1ccc(O)cc1)C(=O)O', 'PC49', 'inactive'),
  ('CC(C)CCCC(C)CCCC(C)CCCCC(C)CCCC(C)CCCC(C)C (configuration not stated)', 'PC49', 'inactive'),
  ('O=C(O)Cn1c(C(=O)Nc2nc(-c3ccccc3Cl)cs2)cc2ccccc21', 'PC49', 'inactive'),
  ('CCCOC(=O)c1ccc(N)cc1', 'PC49', 'inactive'),
  ('NCc1ccc(S(N)(=O)=O)cc1', 'PC49', 'inactive'),
  ('Cn1c(=O)c2c(ncn2CCO)n(C)c1=O', 'PC49', 'inactive'),
  ('COc1ccccc1Oc1c(NS(=O)(=O)c2ccc(C(C)(C)C)cc2)nc(-c2ncccn2)nc1OCCO', 'PC49', 'inactive'),
  ('NC(=O)[C@@H]1CSSCCC(=O)N[C@@H](CCCCN=C(N)N)C(=O)NCC(=O)N[C@@H](CC(=O)O)C(=O)N[C@@H](Cc2c[nH]c3ccccc23)C(=O)N2CCC[C@H]2C(=O)N1 ([Mpa][hArg]GDWPC-NH2; disulfide 1-7)', 'PC49', 'inactive'),
  ('C[C@H]1COc2c(C3(N)CC3)c(F)cc3c(=O)c(C(=O)O)cn1c23', 'PC49', 'inactive'),
  ('COc1ccc2cc(CCC(C)=O)ccc2c1', 'PC49', 'inactive');

* * *

System: CP192
Test: qHTS profiling for inhibitors of Plasmodium falciparum proliferation (AID 504749); note: nearly all actives have a fitted effect of over 60% in size
Details: P. falciparum in erythrocytes, SYBR Green DNA, 72 h; series mostly up to 28.7 µM
Results filed as inconclusive are left out. The source made the active and inactive calls. Calls follow the shape of the dose curve; as a rule, active = well fitted inhibition curve with a large enough effect; inconclusive = small, poorly fitted or top-dose-only effect; inactive = flat fitted curve, though single readings scatter.
Outcome measure: outcome

INSERT INTO results (molecule, outcome_measure, reported) VALUES
  ('CN1C[C@@H]2C[C@H]1CN2c1cc2c(cc1F)c(=O)c(C(=O)O)cn2C1CC1', 'outcome', 'inactive'),
  ('O=C(CN1CCNCC1)NC1CCCCC1', 'outcome', 'inactive'),
  ('Cc1cc(NC(=O)C2=C(O)c3ccccc3S(=O)(=O)N2C)no1', 'outcome', 'inactive'),
  ('O=c1[nH]cnc2nc[nH]c12', 'outcome', 'inactive'),
  ('CCCCCCCC(=O)OCC(O)CO (configuration not stated)', 'outcome', 'inactive'),
  ('COC(=O)c1ccc(O)cc1', 'outcome', 'inactive'),
  ('O=C(O)CCCCC1CCSS1 (configuration not stated)', 'outcome', 'inactive'),
  ('CCN1CC(CCN2CCOCC2)C(c2ccccc2)(c2ccccc2)C1=O (configuration not stated)', 'outcome', 'inactive'),
  ('NCc1ccc(S(N)(=O)=O)cc1', 'outcome', 'inactive'),
  ('Nc1ccc(C(=O)Oc2ccccc2)c(O)c1', 'outcome', 'inactive'),
  ('CCCCOC(=O)c1ccc(N)cc1', 'outcome', 'inactive'),
  ('CC(CSC(=O)c1ccccc1)C(=O)N1C[C@@H](Sc2ccccc2)C[C@H]1C(=O)O (some centres not stated)', 'outcome', 'inactive'),
  ('Cc1c(C)c2c(c(C)c1OC(=O)c1cccnc1)CC[C@@](C)(CCC[C@H](C)CCC[C@H](C)CCCC(C)C)O2', 'outcome', 'inactive'),
  ('CC(C(=O)O)c1ccc2c(c1)Cc1cccnc1O2 (configuration not stated)', 'outcome', 'inactive'),
  ('O=C(O)c1ccc[n+]([O-])c1', 'outcome', 'inactive'),
  ('NS(=O)(=O)c1ccc(C(=O)O)cc1', 'outcome', 'inactive'),
  ('O=C(O)CCC(=O)O', 'outcome', 'inactive');

* * *

Listing of recorded max response by entry.
Tested on: CRL-7250
Experiment: Cytotoxic Profiling of Annotated Libraries Using Quantitative High-Throughput Screening (AID 1296008); note: % is set by controls: 0 for no effect and ±100 for the full control effect; nearly all actives have a fitted effect of over 60% in size
Conditions: Five cell lines viability, CellTiter-Glo ATP luminescence, 48-72 h; hits give low values
Records with an inconclusive call do not appear. Calls of active or inactive are those of the source. The call rests on the fitted dose curve; in most records, active means well fitted inhibition curve with a large enough effect; inconclusive means small, poorly fitted or top-dose-only effect; inactive means flat fitted curve, though single readings scatter.
Outcome measure: max response

INSERT INTO assay_data (compound, system_name, reported) VALUES
  ('COc1ccc(Cc2cnc(N)nc2N)cc1OC', 'CRL-7250', '-8.49% (inactive)'),
  ('O=C(O)CNC(=O)c1ccccc1I', 'CRL-7250', '4.72% (inactive)'),
  ('CC(N)CCCC(C)(C)O (configuration not stated)', 'CRL-7250', '-9.12% (inactive)'),
  ('O=C(CCBr)N1CCN(C(=O)CCBr)CC1', 'CRL-7250', '-5.81% (inactive)'),
  ('COC(=O)c1cccnc1', 'CRL-7250', '-1.99% (inactive)'),
  ('NCc1ccc(S(N)(=O)=O)cc1', 'CRL-7250', '-8.65% (inactive)'),
  ('Cc1c(Cn2ccnc2)c2ccccc2n1CCC(=O)O', 'CRL-7250', '0.62% (inactive)'),
  ('Nc1ccc(C(=O)Oc2ccccc2)c(O)c1', 'CRL-7250', '2.06% (inactive)'),
  ('O=c1[nH]cnc2nc[nH]c12', 'CRL-7250', '-2.48% (inactive)'),
  ('CCC(C)(CN(C)C)OC(=O)c1ccccc1 (configuration not stated)', 'CRL-7250', '-17.5% (inactive)'),
  ('CC(C)C[C@@H](N)C(=O)O', 'CRL-7250', '-5.17% (inactive)'),
  ('CCCCCCCCCCCCCCCCN', 'CRL-7250', '-3.5% (inactive)');

These data points were gathered from PubChem BioAssay (NCATS).
